Source: ChEMBL document CHEMBL1156237

The reader will find reported CC50 values listed item by item below.
experimental-protocol: Cytotoxicity against MDBK cells after 48 to 96 hrs by MTT assay
Format: cell-based, Bos taurus
condition-notes: cattle, MDBK cells
endpoint-name: CC50

> print(dat)
                                  structure  endpoint.result
1   Fc1cccc(F)c1-c1nc2cc(C(F)(F)F)ccc2[nH]1         ≥ 100 µM
2       CCC(=O)Nc1ccc(-c2nc3ccccc3[nH]2)cc1         > 100 µM
3  COc1ccc(-c2nc3cc([N+](=O)[O-])ccc3[nH]2)c(OC)c1         > 100 µM
